Value source: PubChem BioAssay AID248

Tested on: L1210 leukemia ip in BDF1 mice, survival T/C
Assay: NCI In Vivo Anticancer Drug Screen. Data for tumor model L1210 Leukemia (intraperitoneal) in B6D2F1 (BDF1) mice
Conditions: endpoint: mean survival time; dose: 400.0 mg/kg/injection; schedule: Q04DX003 (ip); vehicle: saline with Tween-80; higher = longer survival
Experimental: The antitumor activity of compounds was measured in mice bearing transplantable tumors. Survival or tumor size were measured and the results are expressed as the measurement made in the treated group (T) divided by the measurement made in the vehicle treated control group (C). The tumor model used in this assay is L1210 Leukemia (intraperitoneal) in B6D2F1 (BDF1) mice
Toxic doses and inconclusive results are not listed.
Measured T/C, listed per entry for reference.
attribute-measured: T/C

CCOC(=O)CN(CC)CC(=O)OCC = 101 % of control
CC(C)C(=O)Nc1ccc(S(=O)(=O)NCCO)cc1 = 92 % of control
CCCNC(=O)C1C2C=CC(C2)C1C(=O)NCCC (stereo not drawn) = 91 % of control
COC(=O)c1c(Cl)c(Cl)c(C(=O)OC)c(Cl)c1Cl = 95 % of control
NC(Cc1ccc(O)cc1)C(=O)OCc1ccccc1 (stereo not drawn) = 103 % of control
O=C(Nc1ccccc1C(F)(F)F)c1ccc(Cl)cc1Cl = 95 % of control
COC(=O)c1ccc(Cl)c(NN)c1 = 105 % of control
Clc1ccc(Sc2ncnc3nc[nH]c23)cc1 = 105 % of control
Cc1cccc(NC(=S)NC(=O)CCc2ccccc2)c1C = 86 % of control
CCSc1nc(C=O)c(Cc2ccc(Br)cc2)c(=O)[nH]1 = 106 % of control
O=C(c1ccccn1)C12CC3CC(CC(C3)C1)C2 = 101 % of control
O=C1COC(=O)c2ccccc2O1 = 93 % of control
Cc1ccc(CNc2ccc(F)cc2)cc1 = 113 % of control

====

Measured T/C, listed per entry for reference.
System: L1210 leukemia ip in BDF1 mice, survival T/C
Experiment: NCI In Vivo Anticancer Drug Screen. Data for tumor model L1210 Leukemia (intraperitoneal) in B6D2F1 (BDF1) mice
Settings: endpoint: mean survival time; dose: 100.0 mg/kg/injection; schedule: Q01DX001 (ip); vehicle: saline with Tween-80; higher = longer survival
Inconclusive results and toxic doses are left out.
attribute-measured: T/C

CC(=O)Nc1cccc(/C=C/c2nc(N)nc(N)c2-c2ccc(Cl)cc2)c1 = 98 % of control
Nc1nnnn1-c1ccc(O)cc1 = 101 % of control
Nc1ccnc2n[nH]nc12 = 111 % of control
Cc1ccc(S(=O)NOCCCCONS(=O)c2ccc(C)cc2)cc1 (configuration not stated) = 98 % of control
CCOc1ccc(NC(=O)Oc2ccc(-c3ccccc3)cc2)cc1 = 93 % of control
CCCCCCCCCCCCCCCCC1CC2CCCCC2C1 (configuration not stated) = 100 % of control
CCCC(=O)Nc1cc(C)ccc1N=Nc1ccc(C)cc1 = 95 % of control

====

Measured T/C, listed per entry for reference.
Test system: L1210 leukemia ip in BDF1 mice, survival T/C
Assay: NCI In Vivo Anticancer Drug Screen. Data for tumor model L1210 Leukemia (intraperitoneal) in B6D2F1 (BDF1) mice
Conditions: endpoint: mean survival time; dose: 100.0 mg/kg/injection; schedule: Q01DX001 (ip); vehicle: saline; higher = longer survival
Toxic doses and inconclusive results are not listed.
attribute-measured: T/C

O=C(O)C(SC(C(=O)O)c1ccccc1)c1ccccc1 (stereo not given) = 93 % of control
CC1NC(=S)N(c2ccc(S(=O)(=O)c3ccc(N4C(=O)C(C)NC4=S)cc3)cc2)C1=O (stereo not given) = 102 % of control
COc1ccc(NC2=CC(=O)C(=O)c3ccccc32)nn1 = 91 % of control
COC(=O)c1c2c(c3c(c1C(=O)OC)CCC3)CCC2 = 98 % of control
CC(=O)c1ccccc1C = 104 % of control
